# Target System: E2F4 1-88 (UniProt Q16254 1-88)
# Sequence (Q16254 1-88): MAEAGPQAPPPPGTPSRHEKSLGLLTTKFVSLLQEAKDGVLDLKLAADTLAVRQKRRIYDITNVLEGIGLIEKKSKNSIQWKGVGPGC
# Assay Summary: ITC; SPR: Biacore X100, SA chip, DNA in PBS (137 mM NaCl, 2.7 mM KCl, 10 mM Na2HPO4, 2 mM KH2PO4, pH 7.4), protein 10-320 nM (Fig. S3D legend prints mM); ITC: 250 mM NaCl, 50 mM Tris-HCl pH 7.5; EMSA: Beyotime kit, 6% native gel; temperatures not stated
# Test Context: protein: recombinant; tags: GST removed with 3C protease (ITC methods); pET28 His construct also described; chain copies: 2; blunt
Value Type: pKd
// returns pKd (minus log10 of molar concentration), number only

(Q) Specify measured pKd for Cp2 (ITC) (dsDNA) DNA 1: TTAGATTAAAGGTCTTTGT DNA 2: ACAAAGACCTTTAATCTAA .
(A) 4.99

Each recorded value in this set is attributed to paper PMC8692152.
